Reported values of MIC Staphylococcus aureus (GC 3051) for individual entries
Tested on: Staphylococcus sp.
Experiment: In vitro antibacterial evaluation: minimum inhibitory concentration (MIC), broth dilution method
Assay type: cell-based
Settings: strain GC 3051; broth dilution, 18 hours at 35° C.

compound	target	value.reported
CC(c1ccccc1)C1NC(=O)CNC(=O)C(CO)NC(=O)C(C(O)C2CN(Cc3ccc(-c4ccccc4)cc3)C(=N)N2C2OC(CO)C(O)C(O)C2O)NC(=O)C(C(O)C2CNC(=NCc3ccc(-c4ccccc4)cc3)N2Cc2ccc(-c3ccccc3)cc2)NC(=O)C(Cc2ccc(OC3OC(CO)C(OC4OC(CO)C(O)C(O)C4O)C(O)C3O)cc2)NC1=O (stereo not drawn)	Staphylococcus sp.	8 µg/mL
COc1cccc(C2OCC3OC(OC4C(CO)OC(Oc5ccc(CC6NC(=O)C(C(C)c7ccccc7)NC(=O)CNC(=O)C(CO)NC(=O)C(C(O)C7CNC(=N)N7C7OC(CO)C(O)C(O)C7O)NC(=O)C(C(O)C7CNC(=N)N7)NC6=O)cc5)C(O)C4O)C(O)C(O)C3O2)c1 (stereo not drawn)	Staphylococcus sp.	1 to 2 µg/mL

Now for the compound whose MIC Staphylococcus aureus (GC 3051) we want.
Need MIC Staphylococcus aureus (GC 3051) of COc1cc(OC)cc(C2OC3C(OC4C(CO)OC(Oc5ccc(CC6NC(=O)C(C(C)c7ccccc7)NC(=O)CNC(=O)C(CO)NC(=O)C(C(O)C7CNC(=N)N7C7OC(CO)C(O)C(O)C7O)NC(=O)C(C(O)C7CNC(=N)N7)NC6=O)cc5)C(O)C4O)OC(CO)C(O)C3O2)c1 (stereo not drawn) [Example 150a] , thanks.
32 µg/mL

----------
Tested on: Enterococcus sp.
Experiment: In vitro antibacterial evaluation: minimum inhibitory concentration (MIC), broth dilution method
Type: cell-based
Conditions: Enterococcus faecalis (GC 2691); 18 hours at 35° C.
endpoint: MIC Enterococcus faecalis (GC 2691) (µg/mL)
Report only the number, with the unit µg/mL understood.

compound	MIC Enterococcus faecalis (GC 2691) [µg/mL]
Cc1ccc(COCC2OC(OC3C(CO)OC(Oc4ccc(CC5NC(=O)C(C(C)c6ccccc6)NC(=O)CNC(=O)C(CO)NC(=O)C(C(O)C6CNC(=N)N6C6OC(CO)C(O)C(O)C6O)NC(=O)C(C(O)C6CNC(=N)N6)NC5=O)cc4)C(O)C3O)C(O)C(O)C2O)cc1 (stereo not shown)	8

Would you kindly share the measured MIC Enterococcus faecalis (GC 2691) for CC(C)CC(=O)OC1C(O)C(OC2C(CO)OC(Oc3ccc(CC4NC(=O)C(C(C)c5ccccc5)NC(=O)CNC(=O)C(CO)NC(=O)C(C(O)C5CNC(=N)N5C5OC(CO)C(O)C(O)C5O)NC(=O)C(C(O)C5CNC(=N)N5)NC4=O)cc3)C(O)C2O)OC2COC3(OC21)C1CC2CC(C1)CC3C2 (stereo not shown) ?
4

Next compound: CC(c1ccccc1)C1NC(=O)CNC(=O)C(CO)NC(=O)C(C(O)C2CNC(=N)N2C2OC(CO)C(O)C(O)C2O)NC(=O)C(C(O)C2CNC(=N)N2)NC(=O)C(Cc2ccc(OC3OC(CO)C(OC4OC5COC6(CC(C)(C)CC(C)(C)C6)OC5C(O)C4O)C(O)C3O)cc2)NC1=O (stereo not shown)
2

Lookup CC(c1ccccc1)C1NC(=O)CNC(=O)C(CO)NC(=O)C(C(O)C2CN(c3ncccn3)C(=N)N2C2OC(CO)C(O)C(O)C2O)NC(=O)C(C(O)C2CNC(=Nc3ncccn3)N2)NC(=O)C(Cc2ccc(OC3OC(CO)C(OC4OC5COC6(OC5C(O)C4O)C4CC5CC(C4)CC6C5)C(O)C3O)cc2)NC1=O (stereo not shown)
32

Try CC(c1ccccc1)C1NC(=O)CNC(=O)C(CO)NC(=O)C(C(O)C2CNC(=N)N2C2OC(CO)C(O)C(O)C2O)NC(=O)C(C(O)C2CNC(=N)N2)NC(=O)C(Cc2ccc(OC3OC(CO)C(OC4OC5COC(C)(c6ccc(F)cc6)OC5C(O)C4O)C(O)C3O)cc2)NC1=O (stereo not shown) next.
4

Follow-up item: N=C1NCC(C(O)C2NC(=O)C(Cc3ccc(OC4OC(CO)C(OC5OC6COC(Cc7ccccc7)OC6C(O)C5O)C(O)C4O)cc3)NC(=O)C(CC3CCCCC3)NC(=O)CNC(=O)C(CO)NC(=O)C(C(O)C3CNC(=N)N3C3OC(CO)C(O)C(O)C3O)NC2=O)N1 (stereo not shown)
4

# iterate: CC(c1ccccc1)C1NC(=O)CNC(=O)C(CO)NC(=O)C(C(O)C2CN(Cc3ccc(C(F)(F)F)cc3)C(=N)N2C2OC(CO)C(O)C(O)C2O)NC(=O)C(C(O)C2CNC(=N)N2)NC(=O)C(Cc2ccc(OC3OC(CO)C(OC4OC5COC6(OC5C(O)C4O)C4CC5CC(C4)CC6C5)C(O)C3O)cc2)NC1=O (stereo not shown)
32
